- SYSTEM_TESTED: T1, FcγRIIIA having a Phe residue at polymorphic site 158 (human, UniProt P08637 17-208, limits assumed)
- T1 construct: also called FcγRIIIA-158F; CD16a; not shown: His-tag fused to the C-terminus
- PROTOCOL_SUMMARY: ratio of SPR KDs, reference Fc-WT
REPORTED_PROPERTY: fold decrease in binding (Fc-variant KD/Fc-WT KD) (fold)

{"BINDER": "IgG1 Fc variant Fc-226^hg/290^hg (other, N-linked glycans at Asn297 and at engineered Asn226 and Asn290 (IgG1 heavy chain positions), Both CPP (226-228) and KPR (290-292) replaced by NST) EPKSCDKTHTNSTCPAPELLGGPSVFLFPPKPKDTLMISRTPEVTCVVVDVSHEDPEVKFNWYVDGVEVHNAKTNSTEEQYNSTYRVVSVLTVLHQDWLNGKEYKCKVSNKALPAPIEKTISKAKGQPREPQVYTLPPSREEMTKNQVSLTCLVKGFYPSDIAVEWESNGQPENNYKTTPPVLDSDGSFFLYSKLTVDKSRWQQGNVFSCSVMHEALHNHYTQKSLSLSPGK", "MEASURED": 12.4}
{"BINDER": "IgG1 Fc variant Fc-226^hg/290^hg/S298A/E333A/K334A (other, N-linked glycans at Asn297 and at engineered Asn226 and Asn290 (IgG1 heavy chain positions)) EPKSCDKTHTNSTCPAPELLGGPSVFLFPPKPKDTLMISRTPEVTCVVVDVSHEDPEVKFNWYVDGVEVHNAKTNSTEEQYNATYRVVSVLTVLHQDWLNGKEYKCKVSNKALPAPIAATISKAKGQPREPQVYTLPPSREEMTKNQVSLTCLVKGFYPSDIAVEWESNGQPENNYKTTPPVLDSDGSFFLYSKLTVDKSRWQQGNVFSCSVMHEALHNHYTQKSLSLSPGK", "MEASURED": 3.9}
{"BINDER": "IgG1 Fc variant Fc-226^hg/290^hg/S298A (other, N-linked glycans at Asn297 and at engineered Asn226 and Asn290 (IgG1 heavy chain positions)) EPKSCDKTHTNSTCPAPELLGGPSVFLFPPKPKDTLMISRTPEVTCVVVDVSHEDPEVKFNWYVDGVEVHNAKTNSTEEQYNATYRVVSVLTVLHQDWLNGKEYKCKVSNKALPAPIEKTISKAKGQPREPQVYTLPPSREEMTKNQVSLTCLVKGFYPSDIAVEWESNGQPENNYKTTPPVLDSDGSFFLYSKLTVDKSRWQQGNVFSCSVMHEALHNHYTQKSLSLSPGK", "MEASURED": 6.9}
{"BINDER": "Fc-226^hg/290^hg/E333A/K334A (other, N-linked glycans at Asn297 and at engineered Asn226 and Asn290 (IgG1 heavy chain positions)) EPKSCDKTHTNSTCPAPELLGGPSVFLFPPKPKDTLMISRTPEVTCVVVDVSHEDPEVKFNWYVDGVEVHNAKTNSTEEQYNSTYRVVSVLTVLHQDWLNGKEYKCKVSNKALPAPIAATISKAKGQPREPQVYTLPPSREEMTKNQVSLTCLVKGFYPSDIAVEWESNGQPENNYKTTPPVLDSDGSFFLYSKLTVDKSRWQQGNVFSCSVMHEALHNHYTQKSLSLSPGK", "MEASURED": 11.8}

Origin of the recorded values: patent US20160280766A1
